Reference for the values: patent US12077483B2

- ASSAY_PROCEDURE: pKa of amine lipid by TNS fluorescence
- Type: physicochemical
- SETTINGS: probe TNS (6-(p-toluidino)-2-naphthalenesulfonic acid sodium salt), unformulated amine lipid in ethanol, sodium phosphate buffers -9.0
# label = true (1) if pKa >= 7 else false (0)

Solved cases (2 shown):
CCCCC/C=C\C/C=C\CCCCCCCC(=O)OCC(COC(=O)CCCCCCC/C=C\C/C=C\CCCCC)OC(=O)CCC(CCCCC(C)C)OC(=O)NCCN(C)CC (stereo not drawn) = false (0)
CCCCC/C=C\C/C=C\CCCCCCCC(=O)OCC(COC(=O)CCCCCCC/C=C\C/C=C\CCCCC)COC(=O)CCCC(CCCCCCCC)OC(=O)NCCN(C)CC (stereo not drawn) = false (0)

Continue with the next compound.
Is pKa at least 7? Consider CCCCC/C=C\C/C=C\CCCCCCCC(=O)OCC(COC(=O)CCCCCCC/C=C\C/C=C\CCCCC)OC(=O)CCC(CCCCCC)OC(=O)NC1CN(C)C1 (stereo not drawn)
true (1)

###

- ASSAY_PROCEDURE: pKa of amine lipid by TNS fluorescence
- Assay type: physicochemical
- SETTINGS: probe TNS (6-(p-toluidino)-2-naphthalenesulfonic acid sodium salt), unformulated amine lipid in ethanol, sodium phosphate buffers -9.0
Lab note: anything with pKa at or over 6 counts as t; the rest go in f.

Use these answered entries as a reference point.
CCCCC/C=C\C/C=C\CCCCCCCC(=O)OCC(COC(=O)CCCCCCC/C=C\C/C=C\CCCCC)COC(=O)CC(CCCC)OC(=O)NCCN1CCCC1 (stereo not drawn) [Compound 113] = t
CCCCC/C=C\C/C=C\CCCCCCCC(=O)OCC(COC(=O)CCCCCCC/C=C\C/C=C\CCCCC)OC(=O)CCC(CCCCCCCC)OC(=O)NCCN1CCCCC1 (stereo not drawn) [Compound 94] = f

Continue with the molecule presented below.
Decide: is the reported value of pKa for CCCCCCCCCCOC(=O)CCCCCCCC(=O)OCC(COC(=O)CCCCCCCC(=O)OCCCCCCCCCC)OC(=O)CCCC(CCCCCCCC)OC(=O)NCCN(C)CC (stereo not drawn) [Compound 58] equal to or greater than 6?
t

###

- ASSAY_PROCEDURE: RNA encapsulation efficiency of LNP (Ribogreen fluorescence assay)
- Format: physicochemical
- SETTINGS: Table 10; LNP with G00534 sgRNA:Cas9 mRNA 1:2 w/w
Parameter: Encapsulation (%). Scope: all listed entries.

CCCCC/C=C\C/C=C\CCCCCCCC(=O)OCC(COC(=O)CCC(OCCCCCCCC)OCCCCCCCC)COC(=O)OCCCN(CC)CC (stereo not shown) [Compound 49, reference compound] = 97%

Could you please provide reported Encapsulation (%) for CCCCC/C=C\C/C=C\CCCCCCCC(=O)OCC(COC(=O)CCCCCCC/C=C\C/C=C\CCCCC)OC(=O)CCC(CCCCCCCC)OC(=O)NCCN(C)CC (stereo not shown) ? Thanks!
93%

Consider the molecule CCCCC/C=C\C/C=C\CCCCCCCC(=O)OCC(COC(=O)CCCCCCC/C=C\C/C=C\CCCCC)OC(=O)CCC(CCCCCC)OC(=O)NCCN1CCCC1 (racemic) and give its recorded Encapsulation (%).
87%

Dear colleague, please send me the reported Encapsulation (%) for CCCCC/C=C\C/C=C\CCCCCCCC(=O)OCC(COC(=O)CCCCCCC/C=C\C/C=C\CCCCC)OC(=O)CCC(CCCCCC)OC(=O)OCCCN1CCCC1 (stereo not shown) when you can.
95%
